The measured values listed here are drawn from paper PMC12696353.

Target: is-octβ2R V111^3.33A mutant (Ixodes scapularis, UniProt A0ACM8E5E8, V111A)
Experiment: TGFα shedding assay, mutant V111^3.33A
Assay type: cell-based
Conditions: read-out: EC50
property: pEC50
Please express pEC50 as -log10 of the molar concentration.

Enquiry: Fill blank: measured pEC50 of the compound CN/C=N/c1ccc(C)cc1C is ____.
Return: 6.49

---

Some compounds, each annotated with its measured pEC50.
Biological target: is-octβ2R I61^1.42F mutant (Ixodes scapularis, UniProt A0ACM8E5E8, I40F)
Sequence (A0ACM8E5E8 1-384 I40F): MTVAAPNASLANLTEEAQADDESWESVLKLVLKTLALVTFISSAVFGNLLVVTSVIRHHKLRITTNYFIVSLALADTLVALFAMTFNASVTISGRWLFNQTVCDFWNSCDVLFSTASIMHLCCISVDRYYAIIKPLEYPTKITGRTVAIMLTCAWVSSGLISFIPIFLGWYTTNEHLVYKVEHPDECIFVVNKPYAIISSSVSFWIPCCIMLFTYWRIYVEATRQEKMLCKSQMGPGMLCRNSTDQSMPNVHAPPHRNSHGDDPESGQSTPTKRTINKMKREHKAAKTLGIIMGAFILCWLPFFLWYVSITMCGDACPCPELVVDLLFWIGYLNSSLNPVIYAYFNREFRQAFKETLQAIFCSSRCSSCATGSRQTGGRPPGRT
Test: TGFα shedding assay, amitraz-resistant mutant I61^1.42F
Details: Table S4
Please express pEC50 as -log10 of the molar concentration.

In the examples that follow, each entry is paired with its recorded pEC50.
* NCC(O)c1ccc(O)cc1 (stereo not drawn) [Octopamine, octopamine] | 8.10
* Cc1ccc(/N=C/N(C)/C=N/c2ccc(C)cc2C)c(C)c1 [Amitraz] | 7.20

Here's the next entry for you.
Enquiry: Fill blank: measured pEC50 of the compound CN/C=N/c1ccc(C)cc1C [DPMF] is ____.
Return: 8.10
